The reported measurements were obtained from patent US12076307B2.

# experiment_description: Plasma concentrations of EC-18 in non-irradiated and irradiated mice
# Assay type: in vivo
# particulars: male, Balb/c, mouse, po, 500 mg/kg, day 7, 500 mg/kg oral daily, Irradiated 6.11 Gy
outcome_measure: Tmax
Note: state the figure and append the unit.

INPUT: What does the data say about its Tmax? Entry: CCCCC/C=C\C/C=C\CCCCCCCC(=O)OC(COC(C)=O)COC(=O)CCCCCCCCCCCCCCC (stereo not shown)
OUTPUT: 42 min

---

# experiment_description: Plasma and lymphatic concentrations of EC-18 in beagle dogs after single administration
# Format: in vivo, dog
# particulars: male, beagle, dog; 100 mg/kg IV; Plasma
outcome_measure: half-life (h)
# output: bare number, implied unit h

INPUT: What does the data say about its half-life? Entry: CCCCC/C=C\C/C=C\CCCCCCCC(=O)OC(COC(C)=O)COC(=O)CCCCCCCCCCCCCCC (stereo not shown)
OUTPUT: 13.9

---

# experiment_description: Repeated dose toxicity, SD rat
# Assay type: in vivo
# particulars: SD, rat, in vivo; Oral; 4 weeks (DRF)
outcome_measure: NOAEL at 4 weeks

INPUT: What does the data say about its NOAEL at 4 weeks? Entry: CCCCC/C=C\C/C=C\CCCCCCCC(=O)OC(COC(C)=O)COC(=O)CCCCCCCCCCCCCCC (stereo not shown) [EC-18, 1-palmitoyl-2-linoleoyl-3-acetylglycerol]
OUTPUT: > 2000 mg/kg/day

---

# experiment_description: Plasma protein binding by rapid equilibrium dialysis, rat
# particulars: rat, plasma, Plasma Protein Binding Rate, Rats, 4 hrs RED, n=3
outcome_measure: fraction unbound at 4 hrs, 1 μM

INPUT: What does the data say about its fraction unbound at 4 hrs, 1 μM? Entry: CCCCC/C=C\C/C=C\CCCCCCCC(=O)OC(COC(C)=O)COC(=O)CCCCCCCCCCCCCCC (stereo not shown) [EC-18, 1-palmitoyl-2-linoleoyl-3-acetylglycerol]
OUTPUT: < 0.01

---

# experiment_description: Plasma and lymphatic concentrations of EC-18 in rats after single oral administration
# Type: in vivo, rat
# particulars: male, SD, rat; Plasma; 2000 mg/kg oral; n=3
outcome_measure: AUC(0-t) (ng·h/mL)
# output: bare number, implied unit ng·h/mL

INPUT: What does the data say about its AUC(0-t)? Entry: CCCCC/C=C\C/C=C\CCCCCCCC(=O)OC(COC(C)=O)COC(=O)CCCCCCCCCCCCCCC (stereo not shown)
OUTPUT: 44.5

---

# experiment_description: Plasma concentrations of EC-18 in non-irradiated and irradiated mice
# Assay type: in vivo
# particulars: male, Balb/c, mouse, po, 250 mg/kg, day 14, 250 mg/kg oral daily, Non-irradiated
outcome_measure: Tmax (h)
# output: bare number, implied unit h

INPUT: What does the data say about its Tmax? Entry: CCCCC/C=C\C/C=C\CCCCCCCC(=O)OC(COC(C)=O)COC(=O)CCCCCCCCCCCCCCC (stereo not shown)
OUTPUT: 2.8

---

# experiment_description: Plasma and lymphatic concentrations of EC-18 in rats after single oral administration
# Format: in vivo, rat
# particulars: male, SD, rat; Lymph; 500 mg/kg oral; n=3
outcome_measure: AUC(0-t) (ng·h/mL)
# output: bare number, implied unit ng·h/mL

INPUT: What does the data say about its AUC(0-t)? Entry: CCCCC/C=C\C/C=C\CCCCCCCC(=O)OC(COC(C)=O)COC(=O)CCCCCCCCCCCCCCC (stereo not shown)
OUTPUT: 903

---

# experiment_description: Plasma and lymphatic concentrations of EC-18 in beagle dogs after single administration
# Assay type: in vivo, dog
# particulars: male, beagle, dog; 4000 mg/kg po; Lymph
outcome_measure: half-life

INPUT: What does the data say about its half-life? Entry: CCCCC/C=C\C/C=C\CCCCCCCC(=O)OC(COC(C)=O)COC(=O)CCCCCCCCCCCCCCC (stereo not shown) [EC-18, 1-palmitoyl-2-linoleoyl-3-acetylglycerol]
OUTPUT: 3.3 h

---

# experiment_description: Plasma concentrations of EC-18 in non-irradiated and irradiated mice
# Format: in vivo
# particulars: male, Balb/c, mouse, po, 50 mg/kg, day 14, 50 mg/kg oral daily, Non-irradiated
# Protocol: A day after 6.11 Gy gamma-radiation, both irradiated and non-irradiated male Balb/c mice (n=5) were orally administered daily with 50, 100, 250 or 500 mg/kg of EC-18 up to 14 days and analyzed for PK parameters on days 7 and 14 post-radiation (Table 21).
outcome_measure: AUC(0-t) (ng·h/mL)
# output: bare number, implied unit ng·h/mL

INPUT: What does the data say about its AUC(0-t)? Entry: CCCCC/C=C\C/C=C\CCCCCCCC(=O)OC(COC(C)=O)COC(=O)CCCCCCCCCCCCCCC (stereo not shown)
OUTPUT: 38.5

---

# experiment_description: Plasma concentrations of EC-18 in non-irradiated and irradiated mice
# Format: in vivo
# particulars: male, Balb/c, mouse, po, 250 mg/kg, day 7, 250 mg/kg oral daily, Non-irradiated
outcome_measure: AUC(0-t) (ng·h/mL)
# output: bare number, implied unit ng·h/mL

INPUT: What does the data say about its AUC(0-t)? Entry: CCCCC/C=C\C/C=C\CCCCCCCC(=O)OC(COC(C)=O)COC(=O)CCCCCCCCCCCCCCC (stereo not shown)
OUTPUT: 40.7

---

# experiment_description: Repeated dose toxicity, Beagle dog
# Type: in vivo
# particulars: Beagle, dog, in vivo; Oral; 9 months (4-week recovery)
# Source text: Various toxicology studies have been performed. All studies were GLP-compliant unless otherwise noted.
outcome_measure: NOAEL at 9 months (mg/kg/day)
# output: bare number, implied unit mg/kg/day

INPUT: What does the data say about its NOAEL at 9 months? Entry: CCCCC/C=C\C/C=C\CCCCCCCC(=O)OC(COC(C)=O)COC(=O)CCCCCCCCCCCCCCC (stereo not shown)
OUTPUT: 2000

---

# experiment_description: Plasma concentrations of EC-18 in non-irradiated and irradiated mice
# Format: in vivo
# particulars: male, Balb/c, mouse, po, 100 mg/kg, day 7, 100 mg/kg oral daily, Non-irradiated
outcome_measure: Cmax
Note: state the figure and append the unit.

INPUT: What does the data say about its Cmax? Entry: CCCCC/C=C\C/C=C\CCCCCCCC(=O)OC(COC(C)=O)COC(=O)CCCCCCCCCCCCCCC (stereo not shown)
OUTPUT: 9.7 ng/mL

---

# experiment_description: Plasma and lymphatic concentrations of EC-18 in beagle dogs after single administration
# Assay type: in vivo, dog
# particulars: male, beagle, dog, plasma, po, 2000 mg/kg, 2000 mg/kg po; Plasma; read-out: Tmax
outcome_measure: Tmax (h)
# output: bare number, implied unit h

INPUT: What does the data say about its Tmax? Entry: CCCCC/C=C\C/C=C\CCCCCCCC(=O)OC(COC(C)=O)COC(=O)CCCCCCCCCCCCCCC (stereo not shown)
OUTPUT: 1.3
